Source listed as patent US20260224571A1.

Quick note: these are IC50 numbers for system: UniProt O75116
Where a name gives a salt, the structure may show the parent alone.

Sample answers from the record:
>  <molecule>
CCS(=O)(=O)N1CC(CC#N)(n2cc(-c3cc(-c4cnn(C)c4)nn4ccnc34)c(N)n2)C1

>  <target>
UniProt O75116

>  <IC50>
> 100 nM

$$$$
>  <molecule>
N#CCN1CC(CC#N)(n2cc(-c3ncnc4[nH]ccc34)c(N)n2)C1

>  <target>
UniProt O75116

>  <IC50>
< 10 nM

$$$$
>  <molecule>
N#CCC1(n2cc(-c3ncnc4[nH]ccc34)c(N)n2)CN(S(=O)(=O)NCC(F)(F)F)C1

>  <target>
UniProt O75116

>  <IC50>
< 10 nM

$$$$
>  <molecule>
C[C@@H](N)CS(=O)(=O)N1CC(CC#N)(n2cc(-c3ncnc4[nH]ccc34)c(N)n2)C1 [Example 88, trifluoroacetate salt]

>  <target>
UniProt O75116

>  <IC50>
< 5 nM

$$$$
>  <molecule>
N#CCC1(n2cc(-c3ncnc4[nH]ccc34)c(C(N)=O)n2)CN(S(=O)(=O)C2CC2)C1

>  <target>
UniProt O75116

>  <IC50>
> 100 nM

$$$$

// IC50 lookup, key: N#CCC1(n2cc(-c3ncnc4[nH]ccc34)c(C(N)=O)n2)CN(C(=O)NCC(F)(F)F)C1
> 100 nM

Endpoint output: IC50 of N#CCC1(n2cc(-c3ncnc4[nH]ccc34)c(N)n2)CN(S(=O)(=O)CC(F)(F)F)C1 . Value?
< 10 nM

====

Quick record of pIC50 values for ROCK2 (Homo sapiens, UniProt O75116).
pIC50: −log10 of the molar value.

Below: 3 compounds and their reported pIC50.
>  <compound>
CNC(=O)c1nn(C2(CC#N)CN(S(=O)(=O)CC(F)(F)F)C2)cc1-c1ncnc2[nH]ccc12 [Example 62]

>  <pIC50>
< 7.00

$$$$
>  <compound>
N#CCC1(n2cc(-c3ncnc4[nH]ccc34)c(N)n2)CN(S(=O)(=O)CC(=O)NN)C1 [Example 9]

>  <pIC50>
> 8.00

$$$$
>  <compound>
CN=S(C)(=O)N1CC(CC#N)(n2cc(-c3ncnc4[nH]ccc34)c(N)n2)C1 (stereo not shown) [Example 37]

>  <pIC50>
> 7.30

$$$$

Below: the item to evaluate.
Query: pIC50; subject: N#CCC1(n2cc(-c3ncnc4[nH]ccc34)c(N)n2)CN(C(=O)C2CC2)C1 [Example 22]
> 7.30

====

What follows is a collection of pIC50 values obtained with ROCK1 (Homo sapiens, UniProt Q13464).
Sequence (Q13464 whole entry): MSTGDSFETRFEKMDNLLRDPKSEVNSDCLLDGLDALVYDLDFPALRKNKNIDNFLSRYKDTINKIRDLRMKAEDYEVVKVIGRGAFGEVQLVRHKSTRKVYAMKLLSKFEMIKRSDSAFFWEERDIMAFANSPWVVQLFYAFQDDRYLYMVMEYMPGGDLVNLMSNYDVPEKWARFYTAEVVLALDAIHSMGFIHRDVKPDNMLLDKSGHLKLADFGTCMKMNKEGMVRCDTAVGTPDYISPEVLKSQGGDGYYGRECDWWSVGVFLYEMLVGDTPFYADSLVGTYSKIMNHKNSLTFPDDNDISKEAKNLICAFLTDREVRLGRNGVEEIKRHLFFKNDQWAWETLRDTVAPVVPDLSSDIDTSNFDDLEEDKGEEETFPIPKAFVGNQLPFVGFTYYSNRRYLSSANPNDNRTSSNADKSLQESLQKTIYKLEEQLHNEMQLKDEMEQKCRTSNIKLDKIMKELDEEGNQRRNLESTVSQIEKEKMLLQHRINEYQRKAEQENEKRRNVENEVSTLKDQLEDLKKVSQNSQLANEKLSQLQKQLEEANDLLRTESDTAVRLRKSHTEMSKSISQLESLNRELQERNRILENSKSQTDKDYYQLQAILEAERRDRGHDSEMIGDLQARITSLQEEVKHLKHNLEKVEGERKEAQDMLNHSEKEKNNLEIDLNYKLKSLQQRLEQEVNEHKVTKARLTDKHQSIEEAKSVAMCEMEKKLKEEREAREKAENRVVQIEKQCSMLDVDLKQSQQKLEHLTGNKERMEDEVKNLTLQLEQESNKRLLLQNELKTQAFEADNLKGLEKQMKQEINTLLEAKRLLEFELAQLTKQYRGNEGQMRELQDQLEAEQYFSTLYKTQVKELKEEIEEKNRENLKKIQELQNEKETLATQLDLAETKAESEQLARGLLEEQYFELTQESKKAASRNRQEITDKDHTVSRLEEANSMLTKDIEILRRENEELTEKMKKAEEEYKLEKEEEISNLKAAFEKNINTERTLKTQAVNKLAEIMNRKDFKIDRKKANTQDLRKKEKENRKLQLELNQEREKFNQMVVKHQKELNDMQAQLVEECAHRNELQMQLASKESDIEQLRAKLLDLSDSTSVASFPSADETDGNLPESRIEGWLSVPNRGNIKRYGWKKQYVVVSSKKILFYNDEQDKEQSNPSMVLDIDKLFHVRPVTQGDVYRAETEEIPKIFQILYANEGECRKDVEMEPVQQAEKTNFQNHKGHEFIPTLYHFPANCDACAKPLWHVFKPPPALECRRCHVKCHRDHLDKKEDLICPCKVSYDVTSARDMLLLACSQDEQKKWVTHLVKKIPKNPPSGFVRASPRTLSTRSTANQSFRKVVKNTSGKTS
pIC50: −log10 of the molar value. Where a name gives a salt, the structure may show the parent alone.

>  <compound>
CC(C)NC(=O)N1CC(CC#N)(n2cc(-c3ncnc4[nH]ccc34)c(N)n2)C1 [Example 15]

>  <measurement>
> 7.30

$$$$
>  <compound>
CS(=O)(=O)N1CC(CC#N)(n2cc(-c3ncnc(NCC4CCOCC4)n3)c(N)n2)C1 [Example 73]

>  <measurement>
< 7.00

$$$$
>  <compound>
N#CCC1(n2cc(-c3ncnc4[nH]ccc34)c(N)n2)CN(C(=O)C2(F)CC2)C1 [Example 24]

>  <measurement>
> 7.30

$$$$

Here is the next item to consider.
Observed pIC50 on ROCK1 (Homo sapiens, UniProt Q13464) for C[C@@H](N)CS(=O)(=O)N1CC(CC#N)(n2cc(-c3ncnc4[nH]ccc34)c(N)n2)C1 [Example 88, trifluoroacetate salt] , please.
> 8.30

====

The listing below reports pIC50 for compounds tested on ROCK2 (Homo sapiens).
Sequence (O75116 whole entry): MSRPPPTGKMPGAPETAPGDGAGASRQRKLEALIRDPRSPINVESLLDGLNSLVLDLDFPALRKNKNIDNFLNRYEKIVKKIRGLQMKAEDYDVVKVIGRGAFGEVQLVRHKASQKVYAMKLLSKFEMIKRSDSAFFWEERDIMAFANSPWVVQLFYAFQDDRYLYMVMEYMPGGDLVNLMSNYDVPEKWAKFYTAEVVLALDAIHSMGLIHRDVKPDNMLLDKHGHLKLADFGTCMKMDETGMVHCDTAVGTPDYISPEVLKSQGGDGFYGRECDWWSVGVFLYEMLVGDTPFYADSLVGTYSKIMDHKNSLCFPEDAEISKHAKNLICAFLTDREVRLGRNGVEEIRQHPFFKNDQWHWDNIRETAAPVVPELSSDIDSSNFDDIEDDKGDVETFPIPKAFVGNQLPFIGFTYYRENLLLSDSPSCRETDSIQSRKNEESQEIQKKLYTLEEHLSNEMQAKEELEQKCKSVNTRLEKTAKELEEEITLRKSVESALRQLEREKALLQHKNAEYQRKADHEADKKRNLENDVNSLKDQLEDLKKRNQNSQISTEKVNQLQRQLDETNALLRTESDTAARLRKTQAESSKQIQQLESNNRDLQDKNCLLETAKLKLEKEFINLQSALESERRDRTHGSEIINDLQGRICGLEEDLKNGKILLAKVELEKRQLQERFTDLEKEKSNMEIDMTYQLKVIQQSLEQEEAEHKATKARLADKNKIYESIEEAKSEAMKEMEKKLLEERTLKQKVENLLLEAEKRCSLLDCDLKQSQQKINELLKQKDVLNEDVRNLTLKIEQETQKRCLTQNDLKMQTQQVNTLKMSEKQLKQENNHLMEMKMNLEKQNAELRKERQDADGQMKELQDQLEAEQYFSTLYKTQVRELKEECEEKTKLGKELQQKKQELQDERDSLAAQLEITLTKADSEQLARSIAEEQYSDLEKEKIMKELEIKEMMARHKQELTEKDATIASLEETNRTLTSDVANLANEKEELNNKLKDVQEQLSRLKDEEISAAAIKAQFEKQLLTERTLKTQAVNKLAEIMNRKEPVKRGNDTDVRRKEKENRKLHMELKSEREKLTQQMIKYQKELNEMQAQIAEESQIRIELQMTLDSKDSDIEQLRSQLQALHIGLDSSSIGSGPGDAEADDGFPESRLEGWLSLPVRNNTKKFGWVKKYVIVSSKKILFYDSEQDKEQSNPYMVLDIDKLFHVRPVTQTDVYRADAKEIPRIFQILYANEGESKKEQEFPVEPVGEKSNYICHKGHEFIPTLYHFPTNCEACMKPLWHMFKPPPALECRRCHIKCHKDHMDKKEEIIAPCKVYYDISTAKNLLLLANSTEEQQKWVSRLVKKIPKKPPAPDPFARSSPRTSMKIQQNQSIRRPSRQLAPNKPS
pIC50: −log10 of the molar value.

>  <smilesInput>
CCS(=O)(=O)N1CC(CC#N)(n2cc(-c3cc(Cl)cn4ncnc34)c(N)n2)C1

>  <pIC50>
< 7.00

$$$$
>  <smilesInput>
CS(=O)(=O)N1CC(CC#N)(n2cc(-c3ccnc(NCCO)n3)c(N)n2)C1

>  <pIC50>
< 7.00

$$$$
>  <smilesInput>
CS(=O)(=O)N1CC(CC#N)(n2cc(-c3cc(NCCO)ncn3)c(N)n2)C1

>  <pIC50>
< 7.00

$$$$
>  <smilesInput>
CCS(=O)(=O)N1CC(CC#N)(n2cc(-c3ncnc4[nH]ccc34)c(C(N)=O)n2)C1

>  <pIC50>
< 7.00

$$$$

// map CNC(=O)c1nn(C2(CC#N)CN(S(=O)(=O)C(C)C)C2)cc1-c1ncnc2[nH]ccc12 to recorded pIC50 (system: ROCK2 (Homo sapiens))
< 7.00

Form entry - test system: ROCK2 (Homo sapiens); read-out: pIC50; compound: N#CCC1(n2cc(-c3ncnc4[nH]ccc34)c(N)n2)CN(C(=O)NC2CC2)C1
> 7.30

Could you share what pIC50 was measured for N#CCC1(n2cc(-c3ncnc4[nH]ccc34)c(N)n2)CN(C(=O)[C@@H]2C[C@H]2C#N)C1 , tested on ROCK2 (Homo sapiens)?
> 8.00

// lookup pIC50 | system=ROCK2 (Homo sapiens) | key= N#CCNS(=O)(=O)N1CC(CC#N)(n2cc(-c3ncnc4[nH]ccc34)c(N)n2)C1
> 8.00

====

Entries with reported IC50 on ROCK1 (Homo sapiens, UniProt Q13464)

>  <compound>
N#CCC1(n2cc(-c3ncnc4[nH]ccc34)c(N)n2)CN(S(=O)(=O)NCC(=O)O)C1 [Example 54]

>  <IC50>
< 50 nM

$$$$
>  <compound>
CNC(=O)c1nn(C2(CC#N)CN(S(=O)(=O)CC(F)(F)F)C2)cc1-c1ncnc2[nH]ccc12 [Example 62]

>  <IC50>
> 100 nM

$$$$
>  <compound>
COc1nsc(NC(=O)N2CC(CC#N)(n3cc(-c4ncnc5[nH]ccc45)c(N)n3)C2)n1 [Example 19]

>  <IC50>
< 10 nM

$$$$

Item: N#CCC1(n2cc(-c3ncnc4[nH]ccc34)c(N)n2)CN(C(=O)NCC(F)(F)F)C1 [Example 11] Test system: ROCK1 (Homo sapiens, UniProt Q13464) Read-out: IC50 Value: ?
< 10 nM

// lookup IC50 | system=ROCK1 (Homo sapiens, UniProt Q13464) | key= N#CCC1(n2cc(-c3ncnc4[nH]ccc34)c(N)n2)CN(S(=O)(=O)CC(=O)NN)C1 [Example 9]
< 10 nM

Record N#CCC1(n2cc(-c3ncnc4[nH]ccc34)c(N)n2)CN(S(=O)(=O)N(CC(F)(F)F)CC(F)(F)F)C1 [Example 43] : what is its IC50 with ROCK1 (Homo sapiens, UniProt Q13464)?
< 10 nM

Can you look up IC50 on ROCK1 (Homo sapiens, UniProt Q13464) for N#CCC1(n2cc(-c3ncnc4[nH]ccc34)c(N)n2)CN(S(=O)(=O)N2CC2)C1 [Example 47] ?
< 5 nM

Item: Cn1cc(Nc2cc(-c3cn(C4(CC#N)CN(S(C)(=O)=O)C4)nc3N)ncn2)cn1 [Example 69] Test system: ROCK1 (Homo sapiens, UniProt Q13464) Read-out: IC50 Value: ?
> 100 nM

====

A set of compounds tested on ROCK2 (Homo sapiens, UniProt O75116), with measured IC50:

Which measured IC50 value corresponds to N#CCC1(n2cc(-c3ncnc4[nH]ccc34)c(N)n2)CN(S(=O)(=O)NCC(=O)O)C1 ?
< 50 nM

# IC50 lookup, item CC(C)S(=N)(=O)N1CC(CC#N)(n2cc(-c3ncnc4[nH]ccc34)c(N)n2)C1 (stereo not shown)
< 50 nM

Which IC50 value is on record for N#CCC1(n2cc(-c3ncnc4[nH]ccc34)c(N)n2)CN(S(=O)(=O)NCCCl)C1 ?
< 5 nM

====

pIC50: −log10 of the molar value. Structures can show the parent of a compound that is named as a salt.
ROCK1 (Homo sapiens): recorded pIC50 for assorted molecules

Some molecules with known pIC50 results, for comparison:
>  <molecule>
N#CCC1(n2cc(-c3ncnc4[nH]ccc34)c(N)n2)CN(S(N)(=O)=O)C1

>  <pIC50>
> 8.30

$$$$
>  <molecule>
CNC(=O)N1CC(CC#N)(n2cc(-c3ncnc4[nH]ccc34)c(N)n2)C1

>  <pIC50>
> 8.30

$$$$
>  <molecule>
N#CCC1(n2cc(-c3ncnc4[nH]ccc34)c(C(N)=O)n2)CN(C(=O)NCC(F)(F)F)C1

>  <pIC50>
< 7.00

$$$$
>  <molecule>
N#CCC1(n2cc(-c3ncnc4[nH]ccc34)c(N)n2)CN(C(=O)N2CC(F)(F)C2)C1

>  <pIC50>
> 7.30

$$$$
>  <molecule>
CNS(=O)(=O)N1CC(CC#N)(n2cc(-c3ncnc4[nH]ccc34)c(N)n2)C1

>  <pIC50>
> 8.00

$$$$
>  <molecule>
N#CCC1(n2cc(-c3ncnc4[nH]ccc34)c(C(N)=O)n2)CN(S(=O)(=O)CC(F)(F)F)C1

>  <pIC50>
< 7.00

$$$$
>  <molecule>
CCNc1nn(C2(CC#N)CN(S(=O)(=O)C(F)(F)F)C2)cc1-c1ncnc2[nH]ccc12

>  <pIC50>
> 8.30

$$$$
>  <molecule>
CCNS(=O)(=O)N1CC(CC#N)(n2cc(-c3ncnc4[nH]ccc34)c(N)n2)C1

>  <pIC50>
> 8.00

$$$$
>  <molecule>
C[C@H](N)CS(=O)(=O)N1CC(CC#N)(n2cc(-c3ncnc4[nH]ccc34)c(N)n2)C1 [Example 87, trifluoroacetate salt]

>  <pIC50>
> 8.30

$$$$
>  <molecule>
N#CCC1(n2cc(-c3ncnc4[nH]ccc34)c(N)n2)CN(C(=O)C(F)(F)C(F)(F)F)C1

>  <pIC50>
> 8.00

$$$$

Please give the measured pIC50 for this molecule: CN1CCC(Nc2ncnc(-c3cn(C4(CC#N)CN(S(C)(=O)=O)C4)nc3N)n2)CC1
< 7.00

Give the measured pIC50 of CCS(=O)(=O)N1CC(CC#N)(n2cc(-c3cc(Cl)cn4ncnc34)c(N)n2)C1 .
< 7.00
